tested on: S. aureus ATCC 13709 (Smith); assay: Mouse systemic infection model, S. aureus septicemia; settings: mouse septicemia, S. aureus ATCC 13709, intravenous treatment one hour post-challenge, survival after 48 hours
For each record, write down the corresponding PD50.

The cases that follow already have their PD50 on record.
CN(C)CC(C)(C)CNc1nc(Cl)c2c(c1O)C(=O)C1=C(O)[C@]3(O)C(=O)C(C(N)=O)=C(O)[C@@H](N(C)C)[C@@H]3C[C@@H]1C2    0.36 mg/kg
CN(C)c1cc(NC(=O)CNC(C)(C)C)c(O)c2c1C[C@H]1C[C@H]3[C@H](N(C)C)C(O)=C(C(N)=O)C(=O)[C@@]3(O)C(O)=C1C2=O [tigecycline, reference compound]    0.35 mg/kg
CN(C)c1ncc(O)c2c1C[C@H]1C[C@H]3[C@H](N(C)C)C(O)=C(C(N)=O)C(=O)[C@@]3(O)C(O)=C1C2=O    <0.30 mg/kg

Proceeding to the next compound to report its PD50.
Input CN(C)[C@@H]1C(O)=C(C(N)=O)C(=O)[C@@]2(O)C(O)=C3C(=O)c4c(O)cccc4[C@@](C)(O)[C@H]3C[C@@H]12 [Tetracycline, tetracycline, reference compound] . Output PD50: 0.35 mg/kg
